Would you mind telling me the reported growth inhibition of each entry?
# METHOD_NOTES: NCI Yeast Anticancer Drug Screen. Data for the mec2-1 strain (AID 157)
# MEASUREMENT_PARAMETERS: S. cerevisiae mec2-1 strain, at 5.0 µM (retest, dose inferred, filed as 0.5), stronger effect = higher value
About 79,000 compounds went through this panel and 15% of them were active in at least one assay; those are over-represented in the sample as a whole.
Give the number; % is assumed, so skip it.

I would be grateful if you could share the reported growth inhibition for `O=C1c2ccc(O)c(O)c2C(=O)c2cccc(O)c21` .
30

Can you handle `O=C(NC1(OC(=O)c2ccc(Cl)cc2)CC1)c1ccc(Cl)cc1` next?
14

Can you handle `Cc1ccc(S(=O)(=O)N/N=C2/CC[C@H](C(C)(C)C)C[C@@H]2C)cc1` next?
-15

Can you handle `c1ccc(-c2nc3nc4ccccc4nc3nc2-c2ccccn2)nc1` next?
4

Can you handle `Cc1ccc2c(c1)SSc1ccc(C)cc1SS2` next?
42

Can you handle `Cc1ccc(S(=O)(=O)/C=C2\COc3ccccc3C2=O)cc1` next?
65

Can you handle `COc1ccc(C2=C(Cl)C(=O)N(c3ccccc3Cl)C(=O)C2(Cl)Cl)cc1` next?
-1

Can you handle `CCOCCOC(=O)c1cc([N+](=O)[O-])cc([N+](=O)[O-])c1` next?
-5

Can you handle CC(O)C(O)C(O)C(O)C(O)C(=O)O (stereo not drawn) next?
-2

Can you handle `O=C(Nc1ccc(Br)cc1)Oc1ccccc1C(=O)Nc1ccccc1` next?
1

Can you handle `COc1ccc2c(C#N)cc3c(c[n+](C)c4ccccc34)c2c1` next?
13

Can you handle `N#Cc1cccc2c1Sc1ccccc1N2` next?
6

Can you handle `CCN(CC)c1cc(Nc2c3ccc(Cl)cc3nc3cc(Cl)ccc23)ccc1O` next?
-39

Can you handle `Cc1ccc2[nH]c3cc4ccncc4cc3c2c1` next?
30

Can you handle `CCCCCCCC(=O)/C=C/c1ccc(C)cc1` next?
-54

Can you handle `Cc1ccc(S(=O)(=O)c2cc(O)c(O)c3ccc(Br)cc23)cc1` next?
9

Can you handle `C/C(=N/O)c1cccc(C(F)(F)F)c1` next?
-50

Can you handle `O=C(N=Nc1c(O)[nH]c2ccccc12)C(O)(c1ccccc1)c1ccccc1` next?
19

Can you handle `CCOc1ccccc1C(=O)Oc1cccc(C)c1` next?
-8

Can you handle CCCCCCN(CCCCCC)P(=O)(N1CC1C)N1CC1C (stereo not drawn) next?
-5

Can you handle `CC(C)=CC[P+](CCCCCC[P+](CC=C(C)C)(c1ccccc1)c1ccccc1)(c1ccccc1)c1ccccc1` next?
-1

Can you handle `CCN(CC)Cc1cc(Nc2c3ccccc3nc3c4ccccc4n(C)c23)ccc1O` next?
2

Can you handle `C[N+]1(C)C/C(=C\C=C\c2ccccc2)C(=O)/C(=C/C=C/c2ccccc2)C1` next?
9

---

# METHOD_NOTES: NCI Yeast Anticancer Drug Screen. Data for the mlh1 rad18 strain (AID 175)
# MEASUREMENT_PARAMETERS: S. cerevisiae mlh1 rad18 strain growth inhibition; at 5.0 µM (retest, dose inferred, filed as 0.5)
# Experimental: Growth inhibition of yeast strains with defined genetic alterations is measured as a screen for potential anti-cancer activity. Selected strains with alterations in DNA damage repair or cell cycle control were exposed to compounds and growth inhibition was measured relative to vehicle treated controls. The strain used in this assay is mlh1 rad18
This is part of a sample that, as a whole, favours compounds with a hit. Of some 79,000 tested, about 15% had one in any assay. The source made the active and inactive calls. No stated cut-off is given here; in the data, active means growth inhibition above about 70%; inactive means the rest.
Permitted responses: active, inactive

Can you look up the reported call for `C=C(Cl)C(=NC(C)(C)C)Nc1ccccc1Cl` for me?
inactive

Can you handle `O=c1cc(-c2cccc(OCc3ccccc3)c2)[nH]c2cc3c(cc12)OCO3` next?
inactive

Can you handle `Cn1c(=S)c2[nH]c(=S)[nH]c2n(C)c1=O` next?
active

Can you handle `CCCCCCN(S(=O)(=O)c1ccc([N+](=O)[O-])cc1)S(=O)(=O)c1ccc([N+](=O)[O-])cc1` next?
inactive

Can you handle `NC(=O)C1CCN(N=Nc2c(-c3ccccc3)n[nH]c2-c2ccccc2)CC1` next?
active

Can you handle CC1C/C(=N\N(C)C)C(C#N)(C#N)C1(C#N)C#N (stereo unspecified) next?
inactive

Can you handle `c1ccc2c(c1)CCN2CCc1c[nH]c2ccccc12` next?
inactive

Can you handle `Cc1cc(N)cc(C)c1-c1c(N)cc(Br)cc1Br` next?
inactive

Can you handle `O=C1C=C(c2ccccc2)O/C1=C\C(=O)c1ccc(Cl)cc1` next?
inactive

Can you handle `ClC(Cl)(Cl)C(c1ccccc1)c1ccccc1` next?
inactive

Can you handle O=C1NC(=O)C(c2ccccc2)(c2ccccc2)C2CC3c4[nH]c5ccccc5c4CCN3CC12 (stereo unspecified) next?
inactive

---

Would you mind telling me the reported growth inhibition of each entry?
# METHOD_NOTES: NCI Yeast Anticancer Drug Screen. Data for the mlh1 rad18 strain (AID 175)
# MEASUREMENT_PARAMETERS: S. cerevisiae mlh1 rad18 strain growth inhibition; at 50.0 µM; stronger effect = higher value
This is part of a sample that, as a whole, favours compounds with a hit. Of some 79,000 tested, about 15% had one in any assay. Activity calls are given as the source filed them. Cut-off read from the data, not from the text of the source: active = growth inhibition above about 70%; inactive = the rest.

I would be grateful if you could share the reported growth inhibition for `C[N+](C)(CCCCCCOc1c(Br)cc(Br)cc1Br)Cc1ccc(Br)o1` .
99.7% (active)

Can you handle `Clc1ccc2c(Cl)c3c(nc2c1)CCCC3` next?
99.2% (active)

Can you handle `CCCCCCCOC(=O)CSC#N` next?
99.3% (active)

Can you handle `Oc1ccc2ccccc2c1/C=N\Sc1ccccc1` next?
99% (active)

Can you handle `NC(CSSCC(N)=NCCCCCSC12CC3CC(CC(C3)C1)C2)=NCCCCCSC12CC3CC(CC(C3)C1)C2` next?
99.3% (active)

Can you handle `[O-][n+]1ccc(Br)c(/C=C/c2ccccc2)c1` next?
56.1% (inactive)

Can you handle `CCN(CC)CCCNc1nc(NCCCN(CC)CC)c2nc(-c3ccccc3)c(-c3ccccc3)nc2n1` next?
98.5% (active)

Can you handle `Nc1ccc2nc(Nc3ccc(F)cc3)cnc2c1` next?
65.2% (inactive)

Can you handle `O=c1[nH]c2ccccc2c2oc3ccccc3c12` next?
68.3% (inactive)

Can you handle C/C=C(/CCC1NCCC2c3ccccc3NC12)[Si](C)(C)C (configuration not stated) next?
44.5% (inactive)

Can you handle `CC(C)C(OC(=O)c1ccc(NCC2=CC(=O)C=CC2=O)cc1)C(C)C` next?
-10.4% (inactive)

Can you handle `C#C[C@]1(OC(C)=O)CC[C@H]2[C@@H]3CCC4=CC(=O)CC[C@@H]4[C@H]3CC[C@@]21C` next?
96.8% (active)

Can you handle COC(=O)C1(Cc2ccc3c(c2)CCC3)Cc2ccccc2C1O (configuration not stated) next?
91% (active)

Can you handle `Cc1cc(SCc2ccccc2)cc(C)[o+]1` next?
63.7% (inactive)

Can you handle `N=Nc1c(OC(=O)Nc2ccccc2)[nH]c2ccccc12` next?
71.5% (active)

Can you handle `CCCCCN(CCC)CCCCCCCCCN1CCCc2cc(OC)ccc21` next?
98% (active)

Can you handle `O=C1/C(=C/c2ccc(Cl)cc2)CCC/C1=C\c1ccc(O)c(CN2CCCCC2)c1` next?
90.6% (active)

Can you handle `Cc1ccc(Sc2ccc(C)cc2[N+](=O)[O-])c([N+](=O)[O-])c1` next?
-8.85% (inactive)

Can you handle `O=[N+]([O-])c1cc(I)cc(/C=N/NS(=O)(=O)c2ccc(F)cc2)c1O` next?
93% (active)

Can you handle `Clc1ccccc1/C=C/c1nccc2ccccc12` next?
94.2% (active)

Can you handle OC1(c2ccccc2)c2ccccc2C(O)(c2ccccc2)c2cc3c(cc21)CCCC3 (configuration not stated) next?
96.8% (active)

Can you handle `Clc1ccc(SSN2CCCCC2)cc1` next?
88.4% (active)

Can you handle C1CCC(CC2CCC(NC3=NCCO3)CC2)CC1 (configuration not stated) next?
84.3% (active)

Can you handle `O=C(O)C(=O)Cc1ccc(O)cc1` next?
61% (inactive)

Can you handle `CCCCCCCC(=O)/C=C/c1ccc(C)cc1` next?
45% (inactive)

Can you handle `N#Cc1ccc(OC(=O)Nc2c(Cl)cccc2Cl)cc1` next?
83.5% (active)

Can you handle Cc1ccc(C2COc3cc(O)c(O)cc3C2)cc1 (configuration not stated) next?
99.4% (active)

Can you handle O=C1C(=O)C(Br)(c2ccccc2)C(=O)C1c1ccccc1 (configuration not stated) next?
97.7% (active)

Can you handle `CC[C@@H](C(=O)[C@@H](C)[C@@H](O)[C@H](C)CCc1ccc(C)c(O)c1C(=O)O)[C@H]1O[C@](CC)([C@H]2CC[C@](O)(CC)[C@H](C)O2)C[C@@H]1C` next?
89.3% (active)

Can you handle `O=C(/C=C/c1ccc2c(c1)OCO2)c1ccc(O)cc1` next?
14.6% (inactive)

Can you handle `O=C(CC(=O)c1ccncc1)c1ccccc1` next?
98% (active)

Can you handle CCOC(=O)C1CN(CCCCCCN2CC(C(=O)OCC)C(=O)C2=O)C(=O)C1=O (configuration not stated) next?
30.4% (inactive)

Can you handle Cc1cccc(NC(=O)C(=O)C(C2OC(=O)c3ccccc32)[N+](=O)[O-])c1C (configuration not stated) next?
83.3% (active)

Can you handle `COCCOC1=C(Cl)C(=O)c2c(O)ccc(O)c2C1=O` next?
89.2% (active)

Can you handle `C=C(CN1CCOCC1)C(=O)c1ccccc1` next?
95% (active)

Can you handle `N=C(N)SCc1nc(-c2ccc(Cl)cc2)no1` next?
84.9% (active)

Can you handle `Cc1ccc(C(=O)/C=C/c2ccco2)c(C)c1` next?
17.6% (inactive)

Can you handle CN(C)c1ccc(C(=O)C2CCCC(C)(C)C2)cc1 (configuration not stated) next?
94.8% (active)

Can you handle `O=[N+]([O-])c1c(Cl)cccc1-c1c[nH]cc1Cl` next?
37.8% (inactive)

Can you handle CCCCCCCCCCCC1=NCC(C)N1 (configuration not stated) next?
46% (inactive)

Can you handle O=C1N(Cc2ccccc2)CC1(c1ccccc1)C1CCCCC1O (configuration not stated) next?
4.1% (inactive)

Can you handle `CCOC(=O)/C=C(/Cl)C(=O)OCC` next?
99.1% (active)

Can you handle `CC(C)(CN1CCCCC1)C(/C=C/c1ccc(Cl)c(Cl)c1)=N\NC(=O)N/N=C(/C=C/c1ccc(Cl)c(Cl)c1)C(C)(C)CN1CCCCC1` next?
90% (active)

Can you handle `NNc1ccc(Br)cc1` next?
89.7% (active)

Can you handle `N#CC(=C1C=CC(=NO)C=C1)c1cccc2ccccc12` next?
87.8% (active)

Can you handle `S=C(Nc1ccc(Br)c(Cl)c1)SCc1ccc2c(c1)OCO2` next?
87.4% (active)

Can you handle `COc1ccc2nc3cc(Cl)ccc3c(Nc3nccs3)c2c1` next?
88.2% (active)
